# TESTED_TARGET: phosphodiesterase 4 (PDE4), PDE4A1A (Homo sapiens)
# Construct: purchased BSP Bioscience 60340
# Sequence (P27815 1-647 isoform P27815-4): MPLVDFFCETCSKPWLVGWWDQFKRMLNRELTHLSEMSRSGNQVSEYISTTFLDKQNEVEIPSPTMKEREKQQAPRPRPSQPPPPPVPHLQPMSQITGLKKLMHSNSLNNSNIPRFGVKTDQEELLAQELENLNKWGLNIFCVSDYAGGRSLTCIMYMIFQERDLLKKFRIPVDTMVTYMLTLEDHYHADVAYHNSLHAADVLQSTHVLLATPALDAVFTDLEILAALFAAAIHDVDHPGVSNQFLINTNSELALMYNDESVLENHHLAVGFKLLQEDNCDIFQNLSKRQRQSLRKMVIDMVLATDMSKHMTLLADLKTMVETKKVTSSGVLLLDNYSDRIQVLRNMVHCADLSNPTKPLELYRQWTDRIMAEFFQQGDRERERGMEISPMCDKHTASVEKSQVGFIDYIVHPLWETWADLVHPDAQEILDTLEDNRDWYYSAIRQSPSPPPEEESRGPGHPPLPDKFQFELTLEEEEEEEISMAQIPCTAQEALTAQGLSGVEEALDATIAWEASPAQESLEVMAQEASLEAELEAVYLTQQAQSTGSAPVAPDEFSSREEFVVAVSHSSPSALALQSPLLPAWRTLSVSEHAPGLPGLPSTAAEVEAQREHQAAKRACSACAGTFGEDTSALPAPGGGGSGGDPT
# TEST_SUMMARY: PDE4A1A Assay Kit, fluorescence polarization
# Format: biochemical
# ASSAY_CONDITIONS: read-out: Inhibitory effect on PDE4 IC-50
# Text: Inhibition of PDE4 blocks hydrolysis of cAMP, thereby increasing levels of cAMP. The PDE4A1A Assay Kit is designed for identification of PDE4A1A inhibitors using fluorescence polarization. The assay is based on the binding of fluorescent AMP generated by PDE4A1A to the binding agent. […] A fluorescence plate reader (Appliskan, Thermo Scientific) was used to detect fluorescence emission signals according to the following parameters: […]
For each of the compounds below, state its pIC50.
The read-out pIC50 is expressed as -log10 of concentration in moles per litre.

Exam item: For COC(=O)Cc1cn([C@@H]2O[C@H](CO)[C@@H](O)[C@H](O)[C@H]2O)c2ccccc12 [Glucoindol B] , write its pIC50.
Marked response: 4.34

Exam item: For O=C(O)Cc1cn([C@@H]2O[C@H](CO)[C@@H](O)[C@H](O)[C@H]2O)c2ccccc12 [Glucoindol A] , write its pIC50.
Marked response: 4.06

Exam item: For N#C/C(=C\CO[C@@H]1O[C@H](CO)[C@@H](O)[C@H](O)[C@H]1O)COC(=O)/C=C/c1ccc(O)cc1 [Ribetril C] , write its pIC50.
Marked response: 4.22

Exam item: For COc1cc(/C=C/C(=O)OC/C(C#N)=C/CO[C@@H]2O[C@H](CO)[C@@H](O)[C@H](O)[C@H]2O)ccc1O [Ribetril B] , write its pIC50.
Marked response: 4.85

Exam item: For N#C/C(=C\CO[C@@H]1O[C@H](CO)[C@@H](O)[C@H](O)[C@H]1O)COC(=O)/C=C/c1ccc(O)c(O)c1 [Ribetril A] , write its pIC50.
Marked response: 5.53

Exam item: For N#C/C(=C\CO[C@@H]1O[C@H](CO)[C@@H](O)[C@H](O)[C@H]1O)COC(=O)c1ccc(O)cc1 [Ribetril E] , write its pIC50.
Marked response: 5.46
